Experiment: inhibitors of E-selectin induction by TNFa, primary screen, imaging, HUVEC, immunofluorescence, MLSMR starter and 10KST1 sets (AID 487);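 also: signal is fraction of cell area covered by stained E-selectin grains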
Conditions: HUVEC TNFalpha-induced E-selectin immunofluorescence imaging, at 2 µM; active compounds read high
The label depends only on inhibition: 1.0 if it is at least -20%, 0.0 if it is smaller.

Exam item: Determine whether measured inhibition meets or exceeds -20% for `COC(=O)c1cc(Br)c(=O)n(Cc2ccco2)c1`
Marked response: 1.0

Exam item: Determine whether measured inhibition meets or exceeds -20% for `CN(Cc1ccccc1)C(=O)CNC(=O)Cn1cnc2ccccc2c1=O`
Marked response: 1.0

Exam item: Determine whether measured inhibition meets or exceeds -20% for CCn1cc(C(C)NC(=O)COc2ccc(Cl)cc2C)c(C)n1 (configuration not stated)
Marked response: 0.0

Exam item: Determine whether measured inhibition meets or exceeds -20% for `Cc1c(C(=O)OCC(C)(C)CN(C)C)oc2ccccc12`
Marked response: 0.0

Exam item: Determine whether measured inhibition meets or exceeds -20% for `Cc1cccc2cc(CN(CCN3CCCC3)C(=O)NC3CCCCC3)c(=O)[nH]c12`
Marked response: 1.0

Exam item: Determine whether measured inhibition meets or exceeds -20% for `CCCn1nnc(NC(=O)c2cc(Br)cc(Br)c2OC)n1`
Marked response: 0.0

Exam item: Determine whether measured inhibition meets or exceeds -20% for `CCOc1ccccc1C(=O)N1CCN(c2cccc(Cl)c2)CC1`
Marked response: 0.0

Exam item: Determine whether measured inhibition meets or exceeds -20% for CCOC(=O)c1sc(NC(=O)C2CC=CCC2C(=O)O)nc1C (configuration not stated)
Marked response: 1.0

Exam item: Determine whether measured inhibition meets or exceeds -20% for Cc1ccc(S(=O)(=O)c2cc3c(=O)n4cccc(C)c4nc3n(CC3CCCO3)c2=N)cc1 (configuration not stated)
Marked response: 1.0

Exam item: Determine whether measured inhibition meets or exceeds -20% for `O=C(NC1CCCCC1)c1cc2nc(-c3ccco3)cc(C(F)(F)F)n2n1`
Marked response: 0.0

Exam item: Determine whether measured inhibition meets or exceeds -20% for `CCCn1c(SCC(N)=O)nc2c(c1=O)C1(CCCC1)Cc1ccccc1-2`
Marked response: 1.0

Exam item: Determine whether measured inhibition meets or exceeds -20% for `O=C(NCCN1CCOCC1)c1ccc(=O)oc1`
Marked response: 1.0

Exam item: Determine whether measured inhibition meets or exceeds -20% for `COC(=O)c1ccc2c(c1)nc(C)n2CCO`
Marked response: 0.0

Exam item: Determine whether measured inhibition meets or exceeds -20% for `O=C(NCCSc1c[nH]c2ccccc12)c1ccc(Br)o1`
Marked response: 0.0

Exam item: Determine whether measured inhibition meets or exceeds -20% for CC(c1ccccc1)n1cnc2ccccc21 (configuration not stated)
Marked response: 0.0

Exam item: Determine whether measured inhibition meets or exceeds -20% for O=C1CC(c2ccccc2)n2nc(N3C(=O)c4ccccc4C3=O)nc2N1 (configuration not stated)
Marked response: 0.0

Exam item: Determine whether measured inhibition meets or exceeds -20% for `Cn1c(Cn2cnc3ccccc32)nc2ccccc21`
Marked response: 1.0

Exam item: Determine whether measured inhibition meets or exceeds -20% for `O=C(Nn1c(C2CC2)nc2ccccc2c1=O)c1ccco1`
Marked response: 0.0

Exam item: Determine whether measured inhibition meets or exceeds -20% for `O=c1[nH]c2cnccc2n1-c1ccccc1`
Marked response: 0.0

Exam item: Determine whether measured inhibition meets or exceeds -20% for `O=C(c1ccco1)N1CCN(CCCCN2C(=O)c3ccccc3C2=O)CC1`
Marked response: 1.0

Exam item: Determine whether measured inhibition meets or exceeds -20% for Cc1ccc(C)c(C(=O)CC2(O)C(=O)Nc3ccccc32)c1 (configuration not stated)
Marked response: 0.0

Exam item: Determine whether measured inhibition meets or exceeds -20% for COc1ccc(C2=CC(c3ccc(C)cc3)n3nnnc3N2)cc1 (configuration not stated)
Marked response: 1.0

Exam item: Determine whether measured inhibition meets or exceeds -20% for `CCN(CC)C(=O)CSc1nnc(-c2cc(OC)cc(OC)c2)o1`
Marked response: 1.0

Exam item: Determine whether measured inhibition meets or exceeds -20% for `CCOCCOc1nc2c(c(=O)n(C)c(=O)n2C)n1Cc1ccc(C)cc1`
Marked response: 0.0

Exam item: Determine whether measured inhibition meets or exceeds -20% for `CC1CCN(CCCNC(=O)c2coc3nc4ccccc4nc23)CC1`
Marked response: 0.0

Exam item: Determine whether measured inhibition meets or exceeds -20% for `CCCc1nnc2n1N=C(c1ccc(-c3cc(Cl)ccc3Cl)o1)CS2`
Marked response: 1.0

Exam item: Determine whether measured inhibition meets or exceeds -20% for `Cn1nnc2cc(C(=O)N3CCCCCC3)ccc21`
Marked response: 1.0

Exam item: Determine whether measured inhibition meets or exceeds -20% for `CCOC(=O)N1CCC(NC(=O)CN2C(=O)CCSc3ccccc32)CC1`
Marked response: 0.0

Exam item: Determine whether measured inhibition meets or exceeds -20% for `Cc1ccc(Cn2c(NCCc3ccccc3)nc3c2c(=O)n(C)c(=O)n3C)cc1`
Marked response: 0.0

Exam item: Determine whether measured inhibition meets or exceeds -20% for `Cc1ccc(-c2nc3ccccc3[nH]2)s1`
Marked response: 0.0

Exam item: Determine whether measured inhibition meets or exceeds -20% for `COCCOC(=O)c1c(C)oc2ccc(OC(=O)COc3c(F)c(F)c(F)c(F)c3F)cc12`
Marked response: 0.0

Exam item: Determine whether measured inhibition meets or exceeds -20% for `CCOc1ccccc1C(=O)NCCCCCC(=O)O`
Marked response: 0.0

Exam item: Determine whether measured inhibition meets or exceeds -20% for CN(C)C(=O)N1CCCC(C(=O)NCc2ccccc2)C1 (configuration not stated)
Marked response: 0.0

Exam item: Determine whether measured inhibition meets or exceeds -20% for `CC(C)Cn1c(CN2CCN(c3ccccc3F)CC2)nc2c1c(=O)[nH]c(=O)n2C`
Marked response: 1.0

Exam item: Determine whether measured inhibition meets or exceeds -20% for COc1cccc(C2CC(=O)Nc3c2c(=O)n(C)c(=O)n3C)c1OC (configuration not stated)
Marked response: 1.0

Exam item: Determine whether measured inhibition meets or exceeds -20% for `O=C(NCc1ccc(F)cc1)C1CCN(C(=O)NCc2ccccc2)CC1`
Marked response: 1.0

Exam item: Determine whether measured inhibition meets or exceeds -20% for `CCc1nc2n[nH]c(N)c2c2c1CSC(C)(C)C2`
Marked response: 0.0

Exam item: Determine whether measured inhibition meets or exceeds -20% for `CC(C)Cc1[nH]c(=O)c(C#N)c2c1COC(C)(C)C2`
Marked response: 0.0

Exam item: Determine whether measured inhibition meets or exceeds -20% for `COc1cc(C)nc(Nc2nc(C)c(C(C)=O)s2)n1`
Marked response: 0.0

Exam item: Determine whether measured inhibition meets or exceeds -20% for `COc1ccccc1OCC(=O)N1CCN(c2ccccc2OC)CC1`
Marked response: 1.0

Exam item: Determine whether measured inhibition meets or exceeds -20% for `Cc1cc(=O)oc2ccc(OCC(=O)N3CCc4ccccc43)cc12`
Marked response: 0.0

Exam item: Determine whether measured inhibition meets or exceeds -20% for `COc1cc2nc(-c3ccccc3)nc(N3CCCC3)c2cc1OC`
Marked response: 0.0

Exam item: Determine whether measured inhibition meets or exceeds -20% for `O=C(NCc1ccc2c(c1)OCO2)c1ccccn1`
Marked response: 1.0

Exam item: Determine whether measured inhibition meets or exceeds -20% for CCCCc1nc(NCC2CCCO2)c(C#N)c2c1COC(C)(C)C2 (configuration not stated)
Marked response: 0.0

Exam item: Determine whether measured inhibition meets or exceeds -20% for `CCOc1cc(C2C3=C(CCCC3=O)N(C)C3=C2C(=O)CCC3)cc(Cl)c1O`
Marked response: 1.0

Exam item: Determine whether measured inhibition meets or exceeds -20% for `Cc1ccccc1-n1c(=O)/c(=C\c2ccco2)s/c1=C(/C#N)C(=O)Nc1ccccc1`
Marked response: 1.0

Exam item: Determine whether measured inhibition meets or exceeds -20% for `Cc1cccc(NC(=O)c2cc(N3CCOCC3)nc3ccccc23)c1`
Marked response: 0.0
